Reported logP is given for each of the following compounds.
assay: Measurement of logP values by HPLC on reversed phase columns (EEC directive 79/831 Annex V.A8); format: physicochemical; conditions: pH 2.7
property_measured: logP

[
  {
    "compound": "Cc1ccc(Nc2ncnc(-c3ccnc(C(=O)N(C)CCC#N)c3)n2)cc1Cl",
    "property_measured": "logP",
    "reading": 2.8
  },
  {
    "compound": "COCc1cccc(Nc2ncnc(-c3ccnc(C(=S)N(C)CC4CC4)c3)n2)c1",
    "property_measured": "logP",
    "reading": 3.12
  },
  {
    "compound": "COCC(C1CC1)N(C)C(=O)c1cc(-c2ncnc(Nc3ccc(F)cc3)n2)ccn1 (centres unmarked)",
    "property_measured": "logP",
    "reading": 2.8
  },
  {
    "compound": "O=C(c1cc(-c2ncnc(Nc3cccc(Cl)c3)n2)ccn1)N1CCCC(CO)C1 (centres unmarked)",
    "property_measured": "logP",
    "reading": 2.3
  },
  {
    "compound": "CC(C)CN(C)C(=O)c1cc(-c2ncnc(Nc3ccc(F)c(Cl)c3)n2)ccn1",
    "property_measured": "logP",
    "reading": 3.46
  },
  {
    "compound": "CCC(C)NC(=O)c1cc(-c2ncnc(Nc3ccc(F)c(Cl)c3)n2)ccn1 (centres unmarked)",
    "property_measured": "logP",
    "reading": 4.16
  },
  {
    "compound": "CSc1cccc(Nc2ncnc(-c3ccnc(C(=O)N(C)CC(F)F)c3)n2)c1",
    "property_measured": "logP",
    "reading": 2.96
  },
  {
    "compound": "CC(=NOCc1ccccc1)c1cc(-c2ncnc(Nc3cccc(Cl)c3)n2)ccn1 (mixture of isomers)",
    "property_measured": "logP",
    "reading": 5.18
  }
]
